assayed.target: HLA-B*48:01
procedure.summary: IEDB peptide-MHC binding, purified MHC/direct/fluorescence; filed as Kd, often an IC50 or EC50 that approximates it; bounds were set here for any values at or beyond the usual limits of such assays
particulars: source organism: Dengue virus 1 Singapore/S275/1990
readout.type: Kd

Input line: Please provide the recorded Kd for YRLRGEARK , tested on HLA-B*48:01.
Output line: ≥ 20 µM

----------
assayed.target: HLA-B*44:02
procedure.summary: IEDB peptide-MHC binding, purified MHC/direct/fluorescence; filed as Kd, often an IC50 or EC50 that approximates it; bounds were set here for any values at or beyond the usual limits of such assays
particulars: source organism: Influenza A virus (A/swine/Hong Kong/5190/99(H3N2))
pKd: −log10 of the molar value.
readout.type: pKd

Input line: # query: pKd of entry YMFESKSMK
Output line: ≤ 4.70
